Reference source for all entries: the RNAGym collection of RNA variant scans (doi:10.1126/science.aae0568)

B1: tRNA (parent)
chain: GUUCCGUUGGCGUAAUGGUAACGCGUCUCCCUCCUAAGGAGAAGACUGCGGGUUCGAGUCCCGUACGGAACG

Variants of: B1
Experiment: yeast fitness relative to wild type (ratio to wild type); higher = fitter; tRNA-Arg(CCU), competitive growth, 37 C, YPD
Variants at the floor of the assay were thinned out.
metric-name: yeast fitness
Numbers only.

# example entries with known answers
Sample `GUUCCGUUGGUGUCAUGGUAACGCGUCUCCCUCCUACGGAGAAGACUGCGGGUUCGAGUCCCGUACGGAACG` ; yeast fitness observed: 0.544

So, `GUUUCGUUGGCGUAAUGGUAACGCGUCUCCCUCCUAAGGAGAACACUGCGGGUUCGUGUCCCGUACGGAACG` ? Its yeast fitness was 0.595

# variant `GUUCCGUUGGCGUAAUGGUAAGGCGUCUCCCUCAUAAGGAGAAGACUGCGGGUUCGAGUCCCGUAAGGAACG` ; its yeast fitness = 0.703

Entry under test: `GUUCCGUUGGCGUAAUGGUAACGCGUCUCCGUCCUAAGGAGAAGACUGCGGGUUCGAGUCCCGUAGGGAACG` . Its yeast fitness was 0.587

yeast fitness reported for this variant `GUUCCGUUGGCGUGAUGGUAACGCGUCUCCCGCCUAAGGAGAAGACUGCGGGUUCGAGUUCUGUACGGAACG` : 0.539

Hey, can you go through the list below and give me yeast fitness for every item?
1. GUUCCGUUGGCGUAAUGGUAACGCGUCUCCCUCCUAAGGAGCCGACUGCGGGUUGGGGUCCCGUACGGAACG
2. GUUCCGUUGGCGUAAUGGUAACGCGUCUCCCUCCUAAGGAGCAGACUGCGGGUUCGAGUCCCGUACGUAACG

A)
1. 0.641
2. 0.873
